# target: B-Raf (Homo sapiens)
# Sequence (P15056 whole entry): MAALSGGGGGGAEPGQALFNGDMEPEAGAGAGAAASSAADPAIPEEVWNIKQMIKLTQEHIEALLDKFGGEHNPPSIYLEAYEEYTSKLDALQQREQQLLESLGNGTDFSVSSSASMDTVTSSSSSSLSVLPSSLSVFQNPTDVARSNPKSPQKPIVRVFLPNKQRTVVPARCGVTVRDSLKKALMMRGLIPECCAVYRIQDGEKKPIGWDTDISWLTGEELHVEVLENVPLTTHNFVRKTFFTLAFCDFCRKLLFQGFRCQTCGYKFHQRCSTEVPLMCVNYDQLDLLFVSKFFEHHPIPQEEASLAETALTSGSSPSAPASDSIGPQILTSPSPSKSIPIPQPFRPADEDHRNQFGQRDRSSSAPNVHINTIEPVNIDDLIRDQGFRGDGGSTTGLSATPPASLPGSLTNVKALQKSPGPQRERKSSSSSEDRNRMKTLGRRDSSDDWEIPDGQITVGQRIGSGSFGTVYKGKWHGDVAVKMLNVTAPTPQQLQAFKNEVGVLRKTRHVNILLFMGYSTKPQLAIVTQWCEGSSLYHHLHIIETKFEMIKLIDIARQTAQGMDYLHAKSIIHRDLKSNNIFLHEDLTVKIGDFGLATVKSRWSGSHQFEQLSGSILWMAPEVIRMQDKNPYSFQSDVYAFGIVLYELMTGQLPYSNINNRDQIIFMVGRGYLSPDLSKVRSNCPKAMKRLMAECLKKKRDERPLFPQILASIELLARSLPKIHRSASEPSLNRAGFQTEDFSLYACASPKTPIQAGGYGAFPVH
# test: Luciferase-coupled chemiluminescence kinase assay (ATP consumption), B-Raf
# Assay type: biochemical
# stated conditions: read-out: bRaf IC50
test readout: IC50

Solved entries:
>  <compound>
COC(=O)Nc1nc2cc(C3(O)c4ccccc4C(=O)N3c3cccc(Nc4ccccc4)c3)ccc2[nH]1 (centres unmarked)

>  <value measured>
0.1 to 1 µM

$$$$
>  <compound>
COC(=O)Nc1nc2cc(C3(O)c4ccccc4C(=O)N3C(C)c3cc(F)cc(F)c3)ccc2[nH]1 (centres unmarked)

>  <value measured>
1 to 10 µM

$$$$
>  <compound>
CCC(=O)Nc1nc2cc(C3(O)c4ccccc4C(=O)N3Cc3ccccc3)ccc2[nH]1 (centres unmarked)

>  <value measured>
< 0.1 µM

$$$$
>  <compound>
COC(=O)Nc1nc2cc(C3(O)c4ccccc4C(=O)N3c3cccc(OC)c3)ccc2[nH]1 (centres unmarked)

>  <value measured>
< 0.1 µM

$$$$
>  <compound>
COC(=O)Nc1nc2cc(C3(O)c4ccccc4C(=O)N3c3ccc(F)c(C)c3)ccc2[nH]1 (centres unmarked)

>  <value measured>
< 0.1 µM

$$$$

[Q] Reported IC50, compound O=C1c2ccccc2C(O)(c2ccc3cn[nH]c3c2)N1Cc1ccccc1 (centres unmarked) : ____
[A] ≥ 10 µM

[Q] Request: O=C1COc2ccc(C3(O)c4ccccc4C(=O)N3c3ccc(F)c(C(F)(F)F)c3)cc2N1 (centres unmarked)
[A] ≥ 10 µM

[Q] Request: COc1cccc(CN2C(=O)c3ccccc3C2(O)c2ccc3c(c2)NC(=O)CO3)c1OC (centres unmarked)
[A] ≥ 10 µM

[Q] Request: COC(=O)Nc1nc2cc(C3(O)c4ccccc4C(=O)N3C(C)c3ccccc3F)ccc2[nH]1 (centres unmarked)
[A] 1 to 10 µM

[Q] Request: COC(=O)Nc1nc2cc(C3(O)c4ccccc4C(=O)N3C(C)c3cccs3)ccc2[nH]1 (centres unmarked)
[A] < 0.1 µM

[Q] Request: COC(=O)Nc1nc2cc(C3(O)c4ccccc4C(=O)N3c3cccc(C(F)(F)F)c3)ccc2[nH]1 (centres unmarked)
[A] < 0.1 µM
